# subject_of_test: Peroxisome proliferator-activated receptor gamma (Homo sapiens)
# Sequence (P37231 whole entry, the tested form may be a part): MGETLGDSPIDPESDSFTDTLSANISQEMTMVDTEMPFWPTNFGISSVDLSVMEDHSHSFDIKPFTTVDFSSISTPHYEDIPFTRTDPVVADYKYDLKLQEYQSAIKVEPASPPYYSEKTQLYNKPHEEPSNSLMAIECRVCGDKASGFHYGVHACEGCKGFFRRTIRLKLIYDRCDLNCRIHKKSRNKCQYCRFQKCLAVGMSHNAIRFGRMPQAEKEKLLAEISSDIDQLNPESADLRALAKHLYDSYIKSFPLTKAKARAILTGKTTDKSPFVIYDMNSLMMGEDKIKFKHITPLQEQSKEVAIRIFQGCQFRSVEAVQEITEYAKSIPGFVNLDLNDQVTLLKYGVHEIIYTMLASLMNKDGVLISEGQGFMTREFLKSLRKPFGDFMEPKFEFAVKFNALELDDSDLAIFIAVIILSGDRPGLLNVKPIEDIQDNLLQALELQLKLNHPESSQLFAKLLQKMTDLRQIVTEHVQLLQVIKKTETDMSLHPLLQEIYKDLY
# experimental_protocol: Activation of PPARgamma LBD (unknown origin) co-expressed with Gal4UAS-luciferase reporter in HEK293 cells incubated for 24 hrs by Steady-Glo luciferase reporter gene based luminescence analysis
readout: EC50

1. O=C(O)c1cc(C(F)(F)F)c2cc(N3CCC4(C=C(c5c(-c6c(Cl)cncc6Cl)noc5C5CC5)C4)CC3)ccc2n1 : > 40 µM

* * *

# experimental_protocol: AUC in C57B6 mouse at 2 mg/kg, po administered as suspension
# Assay type: ADME, organism-based
# Parameters: dose 2 mg/kg
# conditions_used: in vivo
readout: AUC (µM·h)

1) O=C(O)c1cc(C(F)(F)F)c2cc(N3CCC4(C=C(c5c(-c6c(Cl)cncc6Cl)noc5C5CC5)C4)CC3)ccc2n1 : 4.76

* * *

# subject_of_test: Estrogen receptor (Homo sapiens, UniProt P03372)
# Sequence (P03372 whole entry): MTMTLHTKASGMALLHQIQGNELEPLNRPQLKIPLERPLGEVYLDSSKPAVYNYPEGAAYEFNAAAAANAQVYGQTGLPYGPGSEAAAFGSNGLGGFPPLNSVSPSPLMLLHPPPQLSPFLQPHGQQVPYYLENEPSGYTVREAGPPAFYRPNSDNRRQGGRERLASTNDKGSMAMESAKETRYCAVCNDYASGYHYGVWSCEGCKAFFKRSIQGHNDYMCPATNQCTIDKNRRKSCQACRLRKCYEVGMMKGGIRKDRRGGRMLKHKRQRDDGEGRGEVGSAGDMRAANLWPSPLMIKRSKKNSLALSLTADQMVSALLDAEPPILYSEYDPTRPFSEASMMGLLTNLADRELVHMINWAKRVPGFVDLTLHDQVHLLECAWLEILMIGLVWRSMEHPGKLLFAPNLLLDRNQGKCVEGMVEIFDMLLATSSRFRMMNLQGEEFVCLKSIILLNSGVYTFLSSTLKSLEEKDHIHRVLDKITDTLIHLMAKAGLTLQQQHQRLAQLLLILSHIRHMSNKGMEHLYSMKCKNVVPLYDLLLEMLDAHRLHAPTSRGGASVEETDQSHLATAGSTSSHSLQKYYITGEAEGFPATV
# experimental_protocol: Activation of estrogen receptor alpha (unknown origin) by fluorescence polarization based competition assay
readout: EC50

1) O=C(O)c1cc(C(F)(F)F)c2cc(N3CCC4(C=C(c5c(-c6c(Cl)cncc6Cl)noc5C5CC5)C4)CC3)ccc2n1 : > 40 µM

* * *

# experimental_protocol: Cmax in C57B6 mouse at 2 mg/kg, po administered as suspension
# Format: ADME, organism-based
# Parameters: route oral, dose 2 mg/kg
# conditions_used: in vivo
readout: Cmax (nM)

1. O=C(O)c1cc(C(F)(F)F)c2cc(N3CCC4(C=C(c5c(-c6c(Cl)cncc6Cl)noc5C5CC5)C4)CC3)ccc2n1 : 1030

* * *

# subject_of_test: Cytochrome P450 3A4 (Homo sapiens, UniProt P08684)
# Sequence (P08684 whole entry): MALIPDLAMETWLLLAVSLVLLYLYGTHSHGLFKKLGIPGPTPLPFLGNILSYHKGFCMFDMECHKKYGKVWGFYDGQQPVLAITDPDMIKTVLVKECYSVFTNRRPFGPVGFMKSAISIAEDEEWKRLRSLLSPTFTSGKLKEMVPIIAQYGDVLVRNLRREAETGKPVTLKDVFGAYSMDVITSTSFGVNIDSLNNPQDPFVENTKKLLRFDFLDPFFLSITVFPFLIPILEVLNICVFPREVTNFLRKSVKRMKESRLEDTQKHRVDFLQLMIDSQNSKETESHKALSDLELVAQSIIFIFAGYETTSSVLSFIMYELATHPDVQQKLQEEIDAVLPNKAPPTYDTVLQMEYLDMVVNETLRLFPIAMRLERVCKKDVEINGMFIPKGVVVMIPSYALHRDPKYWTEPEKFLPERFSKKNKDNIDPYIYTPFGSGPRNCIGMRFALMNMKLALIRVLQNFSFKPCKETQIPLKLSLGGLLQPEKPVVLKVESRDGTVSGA
# note: exactly 2 µM is not below, so it is Condition not met; use Condition met for IC50 strictly under it

1. O=C(O)c1cc(F)c2nc(N3CCC4(C=C(c5c(-c6c(Cl)cccc6Cl)noc5C5CC5)C4)CC3)sc2c1 : Condition met
2. O=C(O)c1cc(F)c2nc(N3CCC4(C=C(c5c(-c6c(Cl)cncc6Cl)noc5C5CC5)C4)CC3)sc2c1 : Condition met
3. O=C(O)c1cc(F)c2nc(N3CCC4(C=C(c5c(-c6ccccc6OC(F)(F)F)noc5C5CC5)C4)CC3)sc2c1 : Condition met
4. O=C(O)c1ccc2cc(N3CCC4(C=C(c5c(-c6c(Cl)cncc6Cl)noc5C5CC5)C4)CC3)ccc2n1 : Condition not met
5. O=C(O)c1ccc(N2CCC3(C=C(c4c(-c5c(Cl)cccc5Cl)noc4C4CC4)C3)CC2)cn1 : Condition not met
6. O=C(O)c1cc(F)c2nc(N3CCC4(C=C(c5c(-c6ccccc6C(F)(F)F)noc5C5CC5)C4)CC3)sc2c1 : Condition not met
7. O=C(O)c1cc(C(F)(F)F)c2cc(N3CCC4(C=C(c5c(-c6c(Cl)cncc6Cl)noc5C5CC5)C4)CC3)ccc2n1 : Condition not met

* * *

# experimental_protocol: Half life in C57B6 mouse at 2 mg/kg, po administered as suspension
# Assay type: ADME, organism-based
# conditions_used: in vivo
readout: half-life (h)

1. O=C(O)c1cc(C(F)(F)F)c2cc(N3CCC4(C=C(c5c(-c6c(Cl)cncc6Cl)noc5C5CC5)C4)CC3)ccc2n1 : 2

* * *

# experimental_protocol: Cmax in C57B6 mouse at 2 mg/kg, po administered as solution
# Assay type: ADME, organism-based
# Design: route oral, dose 2 mg/kg
# conditions_used: in vivo
readout: Cmax (nM)

1. O=C(O)c1cc(C(F)(F)F)c2cc(N3CCC4(C=C(c5c(-c6c(Cl)cncc6Cl)noc5C5CC5)C4)CC3)ccc2n1 : 1220

* * *

Reported half-life by item:
# experimental_protocol: Metabolic stability in mouse liver microsomes assessed as half life
# Assay type: ADME, Microsome
readout: half-life

1. O=C(O)c1cc(F)c2nc(N3CCC4(C=C(c5c(-c6c(Cl)cccc6Cl)noc5C5CC5)C4)CC3)sc2c1 : 2 h
2. O=C(O)c1cc(F)c2nc(N3CCC(/C=C/c4c(-c5c(Cl)cccc5Cl)noc4C4CC4)CC3)sc2c1 : 0.25 h
3. O=C(O)c1ccc2cc(N3CCC4(C=C(c5c(-c6c(Cl)cccc6Cl)noc5C5CC5)C4)CC3)ccc2n1 : > 2 h
4. O=C(O)c1cc(F)c2nc(N3CCC4(C=C(c5c(-c6c(Cl)cncc6Cl)noc5C5CC5)C4)CC3)sc2c1 : > 2 h

* * *

# experimental_protocol: Half life in C57B6 mouse at 1 mg/kg, iv
# Format: ADME, organism-based
# conditions_used: in vivo
readout: half-life (h)

1) O=C(O)c1cc(C(F)(F)F)c2cc(N3CCC4(C=C(c5c(-c6c(Cl)cncc6Cl)noc5C5CC5)C4)CC3)ccc2n1 : 2.6

* * *

# subject_of_test: Progesterone receptor (Homo sapiens, UniProt P06401)
# Sequence (P06401 whole entry): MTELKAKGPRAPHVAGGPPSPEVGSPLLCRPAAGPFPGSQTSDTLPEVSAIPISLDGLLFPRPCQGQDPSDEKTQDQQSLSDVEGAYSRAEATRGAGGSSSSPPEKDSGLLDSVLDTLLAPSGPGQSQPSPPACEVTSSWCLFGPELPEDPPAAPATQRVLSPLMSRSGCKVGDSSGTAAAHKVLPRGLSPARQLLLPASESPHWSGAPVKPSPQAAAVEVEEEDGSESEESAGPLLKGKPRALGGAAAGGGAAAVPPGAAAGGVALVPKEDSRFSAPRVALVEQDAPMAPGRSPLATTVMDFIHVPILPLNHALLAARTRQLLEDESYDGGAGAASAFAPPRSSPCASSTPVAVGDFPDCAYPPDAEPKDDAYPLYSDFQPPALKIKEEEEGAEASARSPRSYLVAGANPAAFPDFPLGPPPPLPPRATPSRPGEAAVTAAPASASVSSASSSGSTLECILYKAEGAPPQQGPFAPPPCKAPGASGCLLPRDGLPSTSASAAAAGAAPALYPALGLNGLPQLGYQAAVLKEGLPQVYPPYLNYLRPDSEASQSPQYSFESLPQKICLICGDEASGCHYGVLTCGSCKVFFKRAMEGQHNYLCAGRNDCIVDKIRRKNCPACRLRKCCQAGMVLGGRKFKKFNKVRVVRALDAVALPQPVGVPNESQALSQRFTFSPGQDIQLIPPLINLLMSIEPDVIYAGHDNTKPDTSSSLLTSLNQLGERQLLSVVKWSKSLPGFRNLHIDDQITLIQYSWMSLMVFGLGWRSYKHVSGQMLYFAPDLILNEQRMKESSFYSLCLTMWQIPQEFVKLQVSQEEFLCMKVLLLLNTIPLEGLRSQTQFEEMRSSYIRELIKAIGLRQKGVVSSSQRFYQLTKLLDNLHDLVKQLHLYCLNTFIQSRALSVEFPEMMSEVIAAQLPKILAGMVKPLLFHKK
# experimental_protocol: Activation of progesterone receptor (unknown origin) by fluorescence polarization based competition assay
pEC50: −log10 of the molar value.
readout: pEC50

1. O=C(O)c1cc(C(F)(F)F)c2cc(N3CCC4(C=C(c5c(-c6c(Cl)cncc6Cl)noc5C5CC5)C4)CC3)ccc2n1 : < 4.40

* * *

# experimental_protocol: Half life in C57B6 mouse at 2 mg/kg, po administered as solution
# Assay type: ADME, organism-based
# conditions_used: in vivo
readout: half-life (h)

1) O=C(O)c1cc(C(F)(F)F)c2cc(N3CCC4(C=C(c5c(-c6c(Cl)cncc6Cl)noc5C5CC5)C4)CC3)ccc2n1 : 2.3

* * *

# subject_of_test: UniProtKB P55055
# Sequence (P55055 whole entry): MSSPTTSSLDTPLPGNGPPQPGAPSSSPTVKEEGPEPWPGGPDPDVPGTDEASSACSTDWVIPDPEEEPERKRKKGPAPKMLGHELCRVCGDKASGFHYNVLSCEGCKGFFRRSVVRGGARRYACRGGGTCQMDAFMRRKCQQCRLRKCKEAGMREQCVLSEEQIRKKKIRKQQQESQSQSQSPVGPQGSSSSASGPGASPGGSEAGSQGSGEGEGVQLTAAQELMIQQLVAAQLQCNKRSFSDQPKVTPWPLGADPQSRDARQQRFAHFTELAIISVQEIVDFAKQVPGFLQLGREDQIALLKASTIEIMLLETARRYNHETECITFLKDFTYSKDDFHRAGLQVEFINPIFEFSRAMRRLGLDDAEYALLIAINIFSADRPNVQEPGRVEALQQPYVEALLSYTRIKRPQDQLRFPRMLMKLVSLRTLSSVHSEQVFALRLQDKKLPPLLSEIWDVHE
# experimental_protocol: Activation of human LXRbeta co-expressed with TK-luciferase reporter in African green monkey CV-1 cells incubated for overnight by Steady-Glo luciferase reporter gene based luminescence analysis
pEC50: −log10 of the molar value.
readout: pEC50

1. O=C(O)c1cc(C(F)(F)F)c2cc(N3CCC4(C=C(c5c(-c6c(Cl)cncc6Cl)noc5C5CC5)C4)CC3)ccc2n1 : < 4.40

* * *

# experimental_protocol: Cmax in C57B6 mouse at 1 mg/kg, iv
# Assay type: ADME, organism-based
# Set-up: route intravenous, dose 1 mg/kg
# conditions_used: in vivo
readout: Cmax

1) O=C(O)c1cc(C(F)(F)F)c2cc(N3CCC4(C=C(c5c(-c6c(Cl)cncc6Cl)noc5C5CC5)C4)CC3)ccc2n1 : 1490 nM

* * *

# experimental_protocol: Oral bioavailability in C57B6 mouse at 2 mg/kg administered as suspension
# Format: ADME, organism-based
# conditions_used: in vivo
readout: bioavailability

1. O=C(O)c1cc(C(F)(F)F)c2cc(N3CCC4(C=C(c5c(-c6c(Cl)cncc6Cl)noc5C5CC5)C4)CC3)ccc2n1 : 26%

* * *

Measured concentration at 6 h, listed per entry.
# experimental_protocol: Plasma concentration in mouse at 3 mg/kg, po measured after 6 hrs
# Format: ADME, organism-based
readout: concentration at 6 h

1) O=C(O)c1cc(F)c2nc(N3CCC(/C=C/c4c(-c5c(Cl)cccc5Cl)noc4C4CC4)CC3)sc2c1 : 195 nM
2) O=C(O)c1cc(C(F)(F)F)c2cc(N3CCC4(C=C(c5c(-c6c(Cl)cncc6Cl)noc5C5CC5)C4)CC3)ccc2n1 : 37 nM
3) O=C(O)c1cc(F)c2nc(N3CCC4(C=C(c5c(-c6c(Cl)cccc6Cl)noc5C5CC5)C4)CC3)sc2c1 : 387 nM

* * *

# subject_of_test: Nuclear receptor ROR-gamma (Homo sapiens, UniProt P51449)
# Sequence (P51449 whole entry, the tested form may be a part): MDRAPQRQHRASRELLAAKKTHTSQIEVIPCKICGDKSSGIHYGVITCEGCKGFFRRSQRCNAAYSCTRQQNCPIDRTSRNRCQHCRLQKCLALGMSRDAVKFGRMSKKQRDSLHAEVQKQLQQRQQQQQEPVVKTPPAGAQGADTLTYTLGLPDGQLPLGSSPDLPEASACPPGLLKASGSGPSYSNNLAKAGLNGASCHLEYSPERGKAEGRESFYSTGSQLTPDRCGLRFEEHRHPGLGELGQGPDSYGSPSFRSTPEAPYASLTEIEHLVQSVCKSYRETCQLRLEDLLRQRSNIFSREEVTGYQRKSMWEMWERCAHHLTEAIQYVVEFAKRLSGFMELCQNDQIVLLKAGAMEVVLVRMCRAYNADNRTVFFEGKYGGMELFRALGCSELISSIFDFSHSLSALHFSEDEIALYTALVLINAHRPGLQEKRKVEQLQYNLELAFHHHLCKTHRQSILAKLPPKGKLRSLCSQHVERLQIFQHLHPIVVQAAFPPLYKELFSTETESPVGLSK
# experimental_protocol: Antagonist activity at human RORgammaT co-expressed with Gal4-luciferase reporter in human Jurkat cells incubated for 18 hrs by Steady-Glo luciferase reporter based luminescence analysis
# Assay type: cell-based
pIC50: −log10 of the molar value.
readout: pIC50

1) O=C(O)c1cc(C(F)(F)F)c2cc(N3CCC4(C=C(c5c(-c6c(Cl)cncc6Cl)noc5C5CC5)C4)CC3)ccc2n1 : < 4.40

* * *

# experimental_protocol: Volume of distribution at steady state in C57B6 mouse at 1 mg/kg, iv
# Type: ADME, organism-based
# conditions_used: in vivo, read-out: Vdss
readout: Vd (L/kg)

1. O=C(O)c1cc(C(F)(F)F)c2cc(N3CCC4(C=C(c5c(-c6c(Cl)cncc6Cl)noc5C5CC5)C4)CC3)ccc2n1 : 0.56

* * *

# subject_of_test: Glucocorticoid receptor (Homo sapiens)
# Sequence (P04150 whole entry): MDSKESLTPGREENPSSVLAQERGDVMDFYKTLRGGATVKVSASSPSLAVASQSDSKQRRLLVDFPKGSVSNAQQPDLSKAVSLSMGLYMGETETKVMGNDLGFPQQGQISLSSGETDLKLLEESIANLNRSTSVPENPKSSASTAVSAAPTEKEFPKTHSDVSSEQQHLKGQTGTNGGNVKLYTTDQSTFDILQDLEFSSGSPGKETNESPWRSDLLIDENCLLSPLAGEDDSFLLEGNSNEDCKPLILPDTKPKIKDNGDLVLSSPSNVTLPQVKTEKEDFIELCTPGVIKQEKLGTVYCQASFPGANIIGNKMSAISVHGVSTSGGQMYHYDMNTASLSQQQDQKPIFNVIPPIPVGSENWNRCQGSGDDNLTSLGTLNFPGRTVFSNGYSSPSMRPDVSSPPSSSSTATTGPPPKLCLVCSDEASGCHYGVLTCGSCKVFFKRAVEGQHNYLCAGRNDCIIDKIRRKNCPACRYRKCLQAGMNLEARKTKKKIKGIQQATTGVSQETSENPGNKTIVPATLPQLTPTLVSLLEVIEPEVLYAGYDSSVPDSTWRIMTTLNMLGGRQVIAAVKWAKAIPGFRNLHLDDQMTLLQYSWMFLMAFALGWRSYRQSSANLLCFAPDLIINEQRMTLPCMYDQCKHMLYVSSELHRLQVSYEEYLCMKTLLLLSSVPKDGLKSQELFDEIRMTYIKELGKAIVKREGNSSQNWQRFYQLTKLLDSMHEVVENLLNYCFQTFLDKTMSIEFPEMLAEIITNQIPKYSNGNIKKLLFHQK
# experimental_protocol: Activation of glucocorticoid receptor (unknown origin) by fluorescence polarization based competition assay
pEC50: −log10 of the molar value.
readout: pEC50

1. O=C(O)c1cc(C(F)(F)F)c2cc(N3CCC4(C=C(c5c(-c6c(Cl)cncc6Cl)noc5C5CC5)C4)CC3)ccc2n1 : < 4.40

* * *

# subject_of_test: Oxysterols receptor LXR-alpha (Homo sapiens, UniProt Q13133)
# Sequence (Q13133 whole entry): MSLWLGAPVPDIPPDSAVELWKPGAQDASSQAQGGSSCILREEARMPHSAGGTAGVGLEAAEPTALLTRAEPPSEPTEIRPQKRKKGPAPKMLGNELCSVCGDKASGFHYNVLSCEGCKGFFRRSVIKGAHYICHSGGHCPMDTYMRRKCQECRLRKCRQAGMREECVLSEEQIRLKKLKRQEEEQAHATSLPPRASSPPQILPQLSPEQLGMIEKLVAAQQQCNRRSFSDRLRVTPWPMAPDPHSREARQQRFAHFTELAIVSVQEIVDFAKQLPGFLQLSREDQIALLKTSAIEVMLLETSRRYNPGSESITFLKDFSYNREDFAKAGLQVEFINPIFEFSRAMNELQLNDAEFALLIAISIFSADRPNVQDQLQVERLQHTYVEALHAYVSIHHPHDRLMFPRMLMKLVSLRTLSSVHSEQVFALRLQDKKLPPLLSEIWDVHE
# experimental_protocol: Activation of human LXRalpha co-expressed with TK-luciferase reporter in African green monkey CV-1 cells incubated for overnight by Steady-Glo luciferase reporter gene based luminescence analysis
pEC50: −log10 of the molar value.
readout: pEC50

1. O=C(O)c1cc(C(F)(F)F)c2cc(N3CCC4(C=C(c5c(-c6c(Cl)cncc6Cl)noc5C5CC5)C4)CC3)ccc2n1 : < 4.40
